Subject Of Test: human PAH with the R408W mutation (Homo sapiens, UniProt P00439, R408W)
Construct: expressed in transfected cells
Test Details: Cell Based Phenylalanine Flux Assay
Run Conditions: A375 cells expressing human R408W PAH; 24 hrs compound incubation; 13C-Tyrosine by LC-MS; average where tested multiple times; read-out: AC50

Molecule	Subject Of Test	AC50
O=C(c1nnc(-c2ccc(F)cn2)o1)N1CCc2[nH]cnc2[C@@H]1c1ncc2ccccc2n1	human PAH with the R408W mutation (Homo sapiens, UniProt P00439, R408W)	1000 to 5000 nM
Cc1nc(C2CC2)oc1C(=O)N1CCc2[nH]cnc2C1c1ccc2ccccc2n1 (stereo in doubt) [Example 35]	human PAH with the R408W mutation (Homo sapiens, UniProt P00439, R408W)	< 500 nM
O=C(c1cncs1)N1CCc2[nH]cnc2[C@@H]1c1ccc2ccccc2c1	human PAH with the R408W mutation (Homo sapiens, UniProt P00439, R408W)	> 5000 nM
CC(C)(C)c1ncc(C(=O)N2CCc3[nH]cnc3C2c2ccc3ccccc3n2)o1 (stereo in doubt)	human PAH with the R408W mutation (Homo sapiens, UniProt P00439, R408W)	< 500 nM
CN(C)Cc1ccc2c(C(=O)N3CCc4[nH]cnc4[C@H]3c3cc4ccccc4cn3)cnn2c1	human PAH with the R408W mutation (Homo sapiens, UniProt P00439, R408W)	< 500 nM
O=C(CC1(O)CCC1)N1CCc2[nH]cnc2C1c1ccc2ccccc2n1 (stereo in doubt) [Example 60]	human PAH with the R408W mutation (Homo sapiens, UniProt P00439, R408W)	1000 to 5000 nM
O=C(c1nnc(-c2cc(C(F)(F)F)ccn2)o1)N1CCc2[nH]cnc2[C@H]1c1ncc2ccccc2n1	human PAH with the R408W mutation (Homo sapiens, UniProt P00439, R408W)	< 500 nM
COCc1ccc2c(C(=O)N3CCc4[nH]cnc4[C@H]3c3ncc4ccccc4n3)cnn2c1	human PAH with the R408W mutation (Homo sapiens, UniProt P00439, R408W)	500 to 1000 nM
Cc1ccc(-c2nnc(C(=O)N3CCc4[nH]cnc4C3c3ccc4ccccc4n3)o2)nc1 (stereo in doubt) [Example 103]	human PAH with the R408W mutation (Homo sapiens, UniProt P00439, R408W)	1000 to 5000 nM
O=C(c1cnn2cc(-c3cnccn3)ccc12)N1CCc2[nH]cnc2[C@H]1c1cc2ccccc2cn1	human PAH with the R408W mutation (Homo sapiens, UniProt P00439, R408W)	< 500 nM

====

Subject Of Test: human PAH with the R408W mutation (Homo sapiens, UniProt P00439, R408W)
Construct: expressed in transfected cells
Test Details: Cell Based Phenylalanine Flux Assay
Run Conditions: A375 cells expressing human R408W PAH; 24 hrs compound incubation; 13C-Tyrosine by LC-MS; average where tested multiple times; read-out: AC50
Each entry below carries its recorded AC50.
Property Measured: AC50

Compound	Reported
C[C@@H](O)c1nc(C(F)F)c(C(=O)N2CCc3[nH]cnc3C2c2ccc3ccccc3n2)o1 (stereo in doubt) [Example 119]	1000 to 5000 nM
Fc1ccc(-c2nnc(N3CCc4[nH]cnc4[C@H]3c3cc4ccccc4cn3)o2)cc1 [Example 337]	< 500 nM
CC(C)(O)c1nc(Br)c(C(=O)N2CCc3[nH]cnc3C2c2ccc3ccccc3n2)o1 (stereo in doubt) [Example 98]	1000 to 5000 nM
Cc1nc(C2(O)CCC2)oc1C(=O)N1CCc2[nH]cnc2C1c1ccc2ccccc2n1 (stereo in doubt) [Example 102]	> 5000 nM
O=C(CCc1nccs1)N1CCc2[nH]cnc2[C@@H]1c1ncc2ccccc2n1 [Example 274]	> 5000 nM
O=C(c1nnc(-c2ccccc2)s1)N1CCc2[nH]cnc2[C@H]1c1cc2ccccc2cn1 [Example 364]	< 500 nM
COCc1ccc2c(C(=O)N3CCc4[nH]cnc4[C@@H]3c3cc4ccccc4cn3)cnn2c1 [Example 315]	> 5000 nM
O=C(c1nnc(-c2ccc(F)c(F)c2)o1)N1CCc2[nH]cnc2C1c1ccc2ccccc2n1 (stereo in doubt) [Example 69]	500 to 1000 nM
O=C(c1cnn2cc(N3CCC(F)CC3)ccc12)N1CCc2[nH]cnc2[C@H]1c1cc2ccccc2cn1 [Example 474]	1000 to 5000 nM
O=C(c1nnc(-c2cc[nH]n2)o1)N1CCc2[nH]cnc2[C@H]1c1cc2ccccc2cn1 [Example 451]	< 500 nM
O=C(c1nnc(-c2ncccc2F)o1)N1CCc2[nH]cnc2C1c1ccc2ccccc2n1 (stereo in doubt) [Example 89]	< 500 nM
CC(C)(O)c1nc(Cl)c(C(=O)N2CCc3[nH]cnc3C2c2ccc3ccccc3n2)o1 (stereo in doubt) [Example 114]	> 5000 nM
CC(C)(F)c1ncc(C(=O)N2CCc3[nH]cnc3[C@H]2c2cn3ccccc3n2)s1 [Example 248]	500 to 1000 nM
Cc1ccc(-c2nnc(C(=O)N3CCc4[nH]cnc4C3c3ccc4ccccc4n3)o2)nc1 (stereo in doubt) [Example 104]	< 500 nM
O=C(c1nnc(-c2ccccn2)o1)N1CCc2[nH]cnc2[C@@H]1c1ncc2ccccc2n1 [Example 146]	1000 to 5000 nM
FC(F)(F)c1cnc(N2CCc3[nH]cnc3[C@@H]2c2cn3ccccc3n2)nc1 [Example 232]	> 5000 nM
CC(C)(F)c1nnc(C(=O)N2CCc3[nH]cnc3[C@@H]2c2ncc3ccccc3n2)o1 [Example 162]	> 5000 nM
O=C(c1cnn2cc(C3CC3)ccc12)N1CCc2[nH]cnc2[C@H]1c1cc2ccccc2cn1 [Example 452]	< 500 nM
Cc1nnc(CC(=O)N2CCc3[nH]cnc3[C@H]2c2cc3ccccc3cn2)s1 [Example 351]	500 to 1000 nM
C[C@H]1CN(C(=O)c2oc(-c3ccccn3)nc2C2CC2)[C@H](c2cc3ccccc3cn2)c2nc[nH]c21 [Example 407]	< 500 nM
COc1ccc2c(C(=O)N3CCc4[nH]cnc4[C@H]3c3cc4ccccc4cn3)cnn2c1 [Example 460]	< 500 nM
O=C(c1oc(C2CC2)nc1C(F)(F)F)N1CCc2[nH]cnc2[C@H]1c1cn2ccccc2n1 [Example 240]	< 500 nM

====

Each entry below carries its recorded AC50.
Subject Of Test: human PAH with the R408W mutation (Homo sapiens, UniProt P00439, R408W)
Construct: expressed in transfected cells
Sequence (P00439 1-452 R408W): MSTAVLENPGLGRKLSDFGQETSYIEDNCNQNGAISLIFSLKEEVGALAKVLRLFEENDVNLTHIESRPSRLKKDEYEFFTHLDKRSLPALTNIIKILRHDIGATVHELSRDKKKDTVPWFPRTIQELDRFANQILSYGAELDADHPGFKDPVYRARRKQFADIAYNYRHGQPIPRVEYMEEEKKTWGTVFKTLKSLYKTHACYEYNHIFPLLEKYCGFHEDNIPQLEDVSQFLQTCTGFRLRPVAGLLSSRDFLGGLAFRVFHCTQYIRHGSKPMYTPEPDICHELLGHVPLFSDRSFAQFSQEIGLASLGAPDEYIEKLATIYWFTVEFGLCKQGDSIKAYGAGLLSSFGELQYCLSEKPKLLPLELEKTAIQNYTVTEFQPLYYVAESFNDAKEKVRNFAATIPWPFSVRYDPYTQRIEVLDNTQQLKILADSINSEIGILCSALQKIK
Test Details: Cell Based Phenylalanine Flux Assay
Run Conditions: A375 R408W cells, 24 hrs with compound, then 20 μM sepiapterin and 800 μM 13C9,15N-Phenylalanine for 4 hours; 13C-Tyrosine by LC-MS; average where tested multiple times; read-out: AC50

Compound	Subject Of Test	AC50
O=C(c1nnc(NC2CC2)o1)N1CCc2[nH]cnc2C1c1ccc2ccccc2n1 (centres unmarked)	human PAH with the R408W mutation (Homo sapiens, UniProt P00439, R408W)	> 5 µM
CC(C)(O)c1nc(C(F)(F)F)c(C(=O)N2CCc3[nH]cnc3C2c2cn3ccccc3n2)o1 (centres unmarked)	human PAH with the R408W mutation (Homo sapiens, UniProt P00439, R408W)	1 to 5 µM
CN1CCN(c2nnc(C(=O)N3CCc4[nH]cnc4C3c3ccc4ccccc4n3)o2)CC1 (centres unmarked)	human PAH with the R408W mutation (Homo sapiens, UniProt P00439, R408W)	> 5 µM
Cc1ncoc1C(=O)N1CCc2[nH]cnc2C1c1ncc2ccccc2n1 (centres unmarked)	human PAH with the R408W mutation (Homo sapiens, UniProt P00439, R408W)	1 to 5 µM
O=C(c1ncn2ccccc12)N1CCc2[nH]cnc2C1c1ccc2ccccc2n1 (centres unmarked)	human PAH with the R408W mutation (Homo sapiens, UniProt P00439, R408W)	1 to 5 µM

====

Each entry below carries its recorded AC50.
Subject Of Test: human PAH with the R408W mutation (Homo sapiens, UniProt P00439, R408W)
Construct: expressed in transfected cells
Test Details: Cell Based Phenylalanine Flux Assay
Run Conditions: A375 cells expressing human R408W PAH; 24 hrs compound incubation; 13C-Tyrosine by LC-MS; average where tested multiple times; read-out: AC50
Property Measured: AC50

Sample Smiles	Reported
O=C(c1cnn2ccccc12)N1CCc2[nH]cnc2[C@H]1c1cn2ccccc2n1	< 0.5 µM
O=C(c1nnc(-c2ccncc2)o1)N1CCc2[nH]cnc2[C@H]1c1cc2ccccc2cn1	< 0.5 µM
O=C(c1nnc(N2CCOCC2)o1)N1CCc2[nH]cnc2[C@H]1c1cc2ccccc2cn1	0.5 to 1 µM
Cc1nc(-c2ccccn2)oc1C(=O)N1C[C@@H](C)c2[nH]cnc2[C@@H]1c1cc2ccccc2cn1	1 to 5 µM
